Hello, the source for this data is paper PMC8617063, in case you need it.

target: thrombin (Homo sapiens); experiment: biochemical; conditions: Ki (pM)
Ends that are not written are not given here.

chain | Ki
SDEAVRAIPKMYSTAPPGDFETIPDDAIEEREMKAR [DAA34688.1 repeat 1] | 43.2 pM
SDEAVRAIPKMYSTAPPGDFETIPDDAIEE [DAA34688.1 repeat 1C] | 6.5 pM
SGGHQTAVPKISKQGLGGDFEEIPSDEIIE [Avathrin, reference compound] | 624 pM
SDEAVRAIPKMYSTAPPGDFETIPDDAIEER [DAA34688.1 repeat 1B] | 20.5 pM
MYSTAPPGDFEEIPDDAIEE [UV011] | 1660 pM
SDEAVRAIPKMYSTAPPGDFEEIPDDAIEE [Ultravariegin] | 4.02 pM
